measured.parameter: melting point

INPUT: Using the record for CC(=O)N[C@@H]1CCN(c2ccc(-c3cc4nc(C(=O)N5CCc6ccccc6[C@H]5C)cc(C5CC5)n4n3)c(F)c2)C1 [Compound 7] , state its measured melting point.
OUTPUT: 189 °C

INPUT: Using the record for C[C@@H]1c2ccccc2CCN1C(=O)c1cc(-c2cncc(F)c2)n2nc(-c3ccc(N4CC[C@H](C(N)=O)C4)cc3F)cc2n1 [Compound 90] , state its measured melting point.
OUTPUT: 269.08 °C

INPUT: Using the record for C[C@@H]1c2ccccc2CCN1C(=O)c1cc(C2CC2)n2nc(-c3ccc(N4CC(O)C4)cc3F)cc2n1 [Compound 67] , state its measured melting point.
OUTPUT: 205.81 °C

INPUT: Using the record for C[C@@H]1c2ccccc2CCN1C(=O)c1cc(C2CC2)n2nc(-c3ccc(N4CC[C@@H](C(N)=O)[C@H]4C)cc3F)cc2n1 (single isomer, unassigned) [Compound 80] , state its measured melting point.
OUTPUT: 182.93 °C

INPUT: Using the record for C[C@@H]1c2ccccc2CCN1C(=O)c1cc(C2CC2)n2nc(-c3ccc(N4CCC(S(N)(=O)=O)C4)cc3F)cc2n1 (stereo partly drawn) [Compound 19] , state its measured melting point.
OUTPUT: 308.63 °C

INPUT: Using the record for C[C@@H]1c2ccsc2CCN1C(=O)c1cc(C2CC2)n2nc(-c3ccc(N4CC[C@H](C(N)=O)C4)cc3F)cc2n1 (single isomer, unassigned) [Compound 46] , state its measured melting point.
OUTPUT: 270 °C

----------
Would you kindly list CC50 at 3 days for each of these molecules?
assay.text: in vitro
study.conditions: human, TOX HELA CC50 (μM)
Answer in µM, number only, no unit symbol.

INPUT: Using the record for C[C@@H]1c2ccccc2CCN1C(=O)c1cc(C2CC2)n2nc(-c3ccc(N4CCC(S(N)(=O)=O)C4)cc3F)cc2n1 (stereo partly drawn) , state its measured CC50 at 3 days.
OUTPUT: 72.3

INPUT: Using the record for C[C@@H]1c2ccccc2CCN1C(=O)c1cc(C2CC2)n2nc(-c3ccc(N4CC[C@H](C(=O)NC#N)C4)cc3F)cc2n1 , state its measured CC50 at 3 days.
OUTPUT: 53.1

----------
Test system: rgRSV224 virus
assay.text: Antiviral activity: rgRSV224 (GFP) replication in HeLa cells
Format: cell-based, respiratory syncytial virus (RSV)
study.conditions: human respiratory syncytial virus, HeLa, 72 h, read-out: RSV HELA EC50 (μM), rgRSV224 virus (MOI=1), HeLa cells, GFP expression three days post-virus exposure
Mark y only when EC50 stays strictly below 0.08 µM. Values equal to the cut-off are n.

INPUT: Quick check: does CNC(=O)[C@H]1CCN(c2ccc(-c3cc4nc(C(=O)N5CCc6ccccc6[C@H]5C)cc(C5CC5)n4n3)c(F)n2)C1 have EC50 under 0.08 µM?
OUTPUT: y

INPUT: Quick check: does C[C@@H]1c2ccccc2CCN1C(=O)c1cc(C2CC2)n2nc(-c3ccc(N4CC[C@@H](OC(N)=O)C4)nc3F)cc2n1 have EC50 under 0.08 µM?
OUTPUT: n

INPUT: Quick check: does CNC(=O)O[C@H]1CCN(c2ccc(-c3cc4nc(C(=O)N5CCc6ccccc6[C@H]5C)cc(C5CC5)n4n3)c(F)c2)C1 have EC50 under 0.08 µM?
OUTPUT: n

INPUT: Quick check: does C[C@@H]1c2ccccc2CCN1C(=O)c1cc(C2CC2)n2nc(-c3ccc(N4CC[C@H](N)C4)cc3F)cc2n1 have EC50 under 0.08 µM?
OUTPUT: y

INPUT: Quick check: does C[C@@H]1c2ccccc2CCN1C(=O)c1cc(C2CC2)n2nc(-c3ccc(N4CC[C@H](c5nnn[nH]5)C4)cc3F)cc2n1 have EC50 under 0.08 µM?
OUTPUT: y

----------
assay.text: in vitro
study.conditions: human, TOX HELA CC50 (μM)
measured.parameter: CC50 at 3 days

INPUT: Using the record for C[C@@H]1c2ccsc2CCN1C(=O)c1cc(C2CC2)n2nc(-c3ccc(N4CC[C@](C)(C(N)=O)C4)cc3F)cc2n1 (single isomer, unassigned) , state its measured CC50 at 3 days.
OUTPUT: 31.4 µM

INPUT: Using the record for C[C@@H]1c2ccccc2CCN1C(=O)c1cc(C2CC2)n2nc(-c3ccc(N4CCCC(O)C4)cc3F)cc2n1 (stereo partly drawn) , state its measured CC50 at 3 days.
OUTPUT: > 100 µM

INPUT: Using the record for CNC(=O)O[C@H]1CCN(c2ccc(-c3cc4nc(C(=O)N5CCc6ccccc6[C@H]5C)cc(C5CC5)n4n3)c(F)c2)C1 , state its measured CC50 at 3 days.
OUTPUT: > 100 µM

----------
assay.text: in vitro
study.conditions: human, TOX HELA CC50 (μM)
measured.parameter: CC50 at 3 days

INPUT: Using the record for C[C@@H]1c2ccccc2CCN1C(=O)c1cc(C2CC2)n2nc(-c3ccc(N4CC[C@H](NS(C)(=O)=O)C4)cc3F)cc2n1 , state its measured CC50 at 3 days.
OUTPUT: > 100 µM

INPUT: Using the record for C[C@@H]1c2ccccc2CCN1C(=O)c1cc(-c2ccc(C(F)(F)F)cc2)n2nc(-c3ccc(N4CC[C@H](C(N)=O)C4)cc3F)cc2n1 , state its measured CC50 at 3 days.
OUTPUT: > 100 µM

INPUT: Using the record for C[C@@H]1c2ccccc2CCN1C(=O)c1cc(C2CC2)n2nc(-c3cc(F)c(N4CC[C@H](C(N)=O)C4)cc3F)cc2n1 , state its measured CC50 at 3 days.
OUTPUT: > 100 µM

----------
Would you kindly list CC50 at 3 days for each of these molecules?
assay.text: in vitro
study.conditions: human, TOX HELA CC50 (μM)

INPUT: Using the record for C[C@@H]1c2ccccc2CCN1C(=O)c1cc(C2CC2)n2nc(-c3ccc(N4CC[C@H](S(C)(=O)=O)C4)cc3F)cc2n1 [Compound 18] , state its measured CC50 at 3 days.
OUTPUT: > 100 µM

INPUT: Using the record for C[C@@H]1c2ccccc2CCN1C(=O)c1cc(C2CC2)n2nc(-c3ccc(N4C[C@H](O)[C@@H](O)C4)cc3F)cc2n1 [Compound 102] , state its measured CC50 at 3 days.
OUTPUT: 44.4 µM

INPUT: Using the record for C[C@@H]1c2ccccc2CCN1C(=O)c1cc(-c2ccncc2)n2nc(-c3ccc(N4CC[C@H](C(N)=O)C4)cc3F)cc2n1 [Compound 63] , state its measured CC50 at 3 days.
OUTPUT: 27.2 µM

INPUT: Using the record for C[C@@H]1c2ccccc2CCN1C(=O)c1cc(C2CC2)n2nc(-c3ccc(N4CC[C@H](C(=O)NS(C)(=O)=O)C4)nc3F)cc2n1 [Compound 51] , state its measured CC50 at 3 days.
OUTPUT: 67.9 µM

INPUT: Using the record for C[C@@H]1c2ccsc2CCN1C(=O)c1cc(C2CC2)n2nc(-c3ccc(N4CC[C@@](C)(C(N)=O)C4)cc3F)cc2n1 (single isomer, unassigned) [Compound 44] , state its measured CC50 at 3 days.
OUTPUT: 45.2 µM

INPUT: Using the record for C[C@@H]1c2ccccc2CCN1C(=O)c1cc(C2CC2)n2nc(-c3ccc(N4CC[C@H](C(N)=O)C4)nc3F)cc2n1 [Compound 49] , state its measured CC50 at 3 days.
OUTPUT: 32.3 µM

INPUT: Using the record for C[C@@H]1c2ccccc2CCN1C(=O)c1cc(C2CC2)n2nc(-c3ccc(N4CC[C@H](NCC(F)(F)F)C4)cc3F)cc2n1 [Compound 94] , state its measured CC50 at 3 days.
OUTPUT: > 100 µM

INPUT: Using the record for C[C@@H]1c2ccccc2CCN1C(=O)c1cc(C2CC2)n2nc(-c3ccc(N4CCC5(COC5)C4)cc3F)cc2n1 [Compound 5] , state its measured CC50 at 3 days.
OUTPUT: > 25 µM

----------
assay.text: in vitro
study.conditions: human, TOX HELA CC50 (μM)
measured.parameter: CC50 at 3 days

INPUT: Using the record for C[C@@H]1c2ccccc2CCN1C(=O)c1cc(C2CC2)n2nc(-c3ccc(N4CC[C@H](NC(=O)C(F)(F)F)C4)cc3F)cc2n1 [Compound 76] , state its measured CC50 at 3 days.
OUTPUT: > 100 µM

INPUT: Using the record for C[C@@H]1c2ccccc2CCN1C(=O)c1cc(-c2ccc(C#N)cc2)n2nc(-c3ccc(N4CC[C@H](C(N)=O)C4)cc3F)cc2n1 [Compound 62] , state its measured CC50 at 3 days.
OUTPUT: > 100 µM

INPUT: Using the record for Cc1ccc(-c2cc(C(=O)N3CCc4ccccc4[C@H]3C)nc3cc(-c4ccc(N5CC[C@H](C(N)=O)C5)cc4F)nn23)cc1 [Compound 58] , state its measured CC50 at 3 days.
OUTPUT: > 100 µM
